target: HLA-A*32:01
protocol_summary: IEDB peptide-MHC binding, purified MHC/competitive/radioactivity; filed as Kd, often an IC50 or EC50 that approximates it; bounds were set here for any values at or beyond the usual limits of such assays
condition_summary: source organism: Vaccinia virus Copenhagen

- chain: "SSNNVSSSI"
  Kd: "155 nM"

----------
Listing: Kd of selected sequences
target: HLA-A*68:01
protocol_summary: IEDB peptide-MHC binding, purified MHC/competitive/radioactivity; filed as Kd, often an IC50 or EC50 that approximates it; bounds were set here for any values at or beyond the usual limits of such assays
condition_summary: source organism: Vaccinia virus Copenhagen

- chain: "ILNFLDWIK"
  target: "HLA-A*68:01"
  Kd: "0.158 µM"
- chain: "SLAIKNYYR"
  target: "HLA-A*68:01"
  Kd: "6.41 µM"
